target: Heat shock factor protein 1 (Homo sapiens); assay: ATG_HSE_CIS: Attagene CIS-FACTORIAL HepG2 Assay for human Heat Shock Transcription Factor 1 (HSE) (AID 2282953); conditions: HepG2 HSE cis-reporter, Attagene RNA transcription; actives raise or lower the signal
Active and inactive are the calls of the source. Rule for the calls: active = hit-call score of the fitted dose curve at least 0.9, where 1 is the maximum; inactive = score below 0.9.
Choose the fitting class; nothing outside TRUE = active, FALSE = inactive is accepted.

Q) Name the outcome recorded for `CCCCSP(=O)(SCCCC)SCCCC` in the assay.
A) FALSE

Q) Entry `CCOP(=S)(OCC)Oc1cc(C)nc(C(C)C)n1` please
A) FALSE

Q) Continue with CC(C1CC1)C(O)(Cn1cncn1)c1ccc(Cl)cc1 (configuration not stated)
A) FALSE

Q) Same lookup for `CCC(=O)Nc1ccc(Cl)c(Cl)c1` , please.
A) FALSE

Q) // query: COP(=O)(OC)OC(Br)C(Cl)(Cl)Br (configuration not stated)
A) FALSE

Q) Same question, `CON=C(C(=O)OC)c1ccccc1CON=C(C)c1cccc(C(F)(F)F)c1` this time
A) TRUE

Q) Now consider CCOP(=S)(OCC)OC(Cl)C(Cl)(Cl)Cl (configuration not stated) and answer again.
A) FALSE

Q) Follow-up item: `CN(C)[C@@H]1C(=O)C(C(N)=O)=C(O)[C@@]2(O)C(=O)C3=C(O)c4c(O)cccc4[C@@](C)(O)[C@H]3[C@H](O)[C@@H]12`
A) FALSE

Q) // same read-out, input: `CNC(=O)ON=C(C)SC`
A) FALSE

Q) Param item: `CC1=NNC(=O)N(/N=C/c2cccnc2)C1`
A) FALSE

Q) And `CNC(=O)ON=C(SC)C(=O)N(C)C` ?
A) FALSE

Q) Now this one: `COc1cc(OC)nc(Sc2cccc(Cl)c2C(=O)O)n1`
A) FALSE

* * *

biological target: human Norepinephrine Transporter (NET), SLC6A2 (gene 6530) (UniProt P23975); assay: NVS_TR_hNET: NovaScreen (NVS) Transporter Assay for human Norepinephrine Transporter (NET) (AID 2283377);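 note: cell-free membrane protein extracted from CHO cells expressing human NET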
Sequence (P23975 whole entry, looked up): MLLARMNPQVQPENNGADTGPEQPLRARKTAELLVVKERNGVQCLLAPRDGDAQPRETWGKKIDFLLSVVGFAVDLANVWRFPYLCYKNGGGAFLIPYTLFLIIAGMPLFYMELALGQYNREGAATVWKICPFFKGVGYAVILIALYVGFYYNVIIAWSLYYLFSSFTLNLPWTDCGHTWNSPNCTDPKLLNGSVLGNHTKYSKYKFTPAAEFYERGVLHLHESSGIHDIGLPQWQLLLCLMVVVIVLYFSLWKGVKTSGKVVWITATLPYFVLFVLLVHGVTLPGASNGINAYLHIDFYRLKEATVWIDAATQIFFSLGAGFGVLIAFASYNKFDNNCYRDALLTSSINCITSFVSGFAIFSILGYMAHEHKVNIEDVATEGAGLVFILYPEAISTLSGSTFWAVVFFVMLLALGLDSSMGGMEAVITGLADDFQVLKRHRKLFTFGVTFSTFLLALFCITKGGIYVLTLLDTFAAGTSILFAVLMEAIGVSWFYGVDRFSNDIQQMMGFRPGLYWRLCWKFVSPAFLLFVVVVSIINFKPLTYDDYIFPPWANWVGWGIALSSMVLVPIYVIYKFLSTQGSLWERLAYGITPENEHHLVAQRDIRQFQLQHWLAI
Inconclusive results are not listed. Calls of active or inactive are those of the source. Rule for the calls: active = hit-call score of the fitted dose curve at least 0.9, where 1 is the maximum; inconclusive = response in the unintended direction; inactive = score below 0.9.
// one of 1 (active), -1 (inactive), no free text

Q) What classification did `CCC(=O)Nc1ccc(Cl)c(Cl)c1` end up with in this test?
A) 1

Q) Further, for `Cc1cc(C2CC2)nc(Nc2ccccc2)n1` ?
A) 1

Q) CC(Oc1cccc(Cl)c1)C(=O)O (stereo not given) , same question.
A) -1

Q) `C[Si](Cn1cncn1)(c1ccc(F)cc1)c1ccc(F)cc1` ?
A) 1

Q) Please give the result for `CC[C@H](C)[C@H]1O[C@]2(C=C[C@@H]1C)C[C@@H]1C[C@@H](C/C=C(\C)[C@@H](O[C@H]3C[C@H](OC)[C@@H](O[C@H]4C[C@H](OC)[C@@H](NC)[C@H](C)O4)[C@H](C)O3)[C@@H](C)/C=C/C=C3\CO[C@@H]4[C@H](O)C(C)=C[C@@H](C(=O)O1)[C@]34O)O2` too.
A) 1

* * *

Assay: CCTE_Harrill_HTTr_CellCount_MCF7: CCTE's Cell Proliferation Assessment for the High-Throughput Transcriptomics (HTTr) Platform, Harrill Lab (AID 2284012);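 note: cells exposed to compound for six hours; intended direction is loss of nuclei count meaning fewer cells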
From the text: This is a cell-based assay that evaluates cell viability and cell growth using high content imaging to count the number of Hoechst-labeled nuclei that are present in an assay well in 384-well format.This is a cell-based assay that evaluates cell viability and cell growth in MCF-7 cells. This was part of a full screening experiment. […]
Records with an inconclusive call do not appear. Calls of active or inactive are those of the source. The calls were made as follows: active = hit-call score of the fitted dose curve at least 0.9, where 1 is the maximum; inconclusive = response in the unintended direction; inactive = score below 0.9.
Please state which outcome applies, choosing from True (active), False (inactive)

Q) Fill in: this test's call for `CCCOc1nn(C(=O)NS(=O)(=O)c2ccccc2C(=O)OC)c(=O)n1C` is ___
A) False

Q) Can you check `COc1ccc(C(=CC(=O)N2CCOCC2)c2ccc(Cl)cc2)cc1OC` next?
A) False

Q) Let us now turn to `CSc1nc(NC(C)C)nc(NC(C)C)n1`
A) False

Q) For `Nc1nc(N)nc(NC2CC2)n1` then?
A) False

Q) What about this molecule? `CCOP(=S)(OCC)Oc1ccc2c(C)c(Cl)c(=O)oc2c1`
A) False

Q) Try CC(COc1ccc(Oc2ccccc2)cc1)Oc1ccccn1 (stereo unspecified) next.
A) False

Q) And for `O=[N+]([O-])c1cc(C(F)(F)F)c(Cl)c([N+](=O)[O-])c1Nc1ncc(C(F)(F)F)cc1Cl` ?
A) False

Q) // next record `Cc1nn(-c2cc(NS(C)(=O)=O)c(Cl)cc2Cl)c(=O)n1C(F)F`
A) False

Q) Can you check `CNC(=O)ON=C(SC)C(=O)N(C)C` next?
A) False

Q) And what about the molecule `CC[C@H](C)[C@H]1O[C@]2(C=C[C@@H]1C)C[C@@H]1C[C@@H](C/C=C(\C)[C@@H](O[C@H]3C[C@H](OC)[C@@H](O[C@H]4C[C@H](OC)[C@@H](NC)[C@H](C)O4)[C@H](C)O3)[C@@H](C)/C=C/C=C3\CO[C@@H]4[C@H](O)C(C)=C[C@@H](C(=O)O1)[C@]34O)O2` ?
A) True

Q) Okay, and `CCOP(=S)(OCC)Oc1ccc([N+](=O)[O-])cc1` ?
A) False
